Attribution: paper PMC5936909

- Test system: RAW 264.7 cells
- Test: in vitro cytotoxicity, MTT assay
- Measurement Context: at 50 µg ml^−1, RAW 264.7 cells
Decision: cytotoxicity (percentage inhibition of cells) compared against 20%; not below it gives MET, below it gives NOT MET.

API: above_or_equal(metric=cytotoxicity (percentage inhibition of cells), cutoff=20%) for item O=c1c(Cn2cc(-c3ccccc3)nn2)coc2ccccc12 [6a]
NOT MET

Also need O=c1c(Cn2cc(C3CCCC3)nn2)coc2ccccc12 [6o] , thanks.
NOT MET

Thanks! And O=c1c(Cn2cc(-c3ccccn3)nn2)coc2ccccc12 [6l] ?
MET

Queued: O=c1c(Cn2cc(CCCCCCCCCCCCCCCO)nn2)coc2ccccc12 [6s]
MET

Next record, please: Cc1cccc(-c2cn(Cc3coc4ccccc4c3=O)nn2)c1 [6i]
MET

Please give the result for O=c1c(Cn2cc(CC3CCCCC3)nn2)coc2ccccc12 [6q] too.
MET

What do we get for O=c1c(Cn2cc(C3(O)c4ccccc4-c4ccccc43)nn2)coc2ccccc12 [6r] ?
MET

Next compound: COc1ccc(-c2cn(Cc3coc4ccccc4c3=O)nn2)cc1 [6g]
MET

Note, next up: CCCCCCc1cn(Cc2coc3ccccc3c2=O)nn1 [6n]
MET

Try this compound next: CCCCCOc1ccc(-c2cn(Cc3coc4ccccc4c3=O)nn2)cc1 [6h]
NOT MET

---

Give measured cytotoxicity (percentage inhibition of cells) for each item. Keep answers brief.
- System: RAW 264.7 cells
- Test: in vitro cytotoxicity, MTT assay
- Measurement Context: at 50 µg ml^−1, RAW 264.7 cells
Write the number in % without appending the unit.

Recorded cytotoxicity (percentage inhibition of cells) of Cc1ccc(-c2cn(Cc3coc4ccccc4c3=O)nn2)cc1 , please.
26.82

Can you handle CCCCCc1ccc(-c2cn(Cc3coc4ccccc4c3=O)nn2)cc1 next?
20.12

Would you kindly repeat that for COc1ccc(-c2cn(Cc3coc4ccccc4c3=O)nn2)c(C)c1 ?
30.34

CCCCc1cn(Cc2coc3ccccc3c2=O)nn1 ?
36.82

Next entry: O=c1c(Cn2cc(-c3cccc4ccccc34)nn2)coc2ccccc12
26.12

Then this compound: CCc1ccc(-c2cn(Cc3coc4ccccc4c3=O)nn2)cc1
16.12

---

Measured Attribute: melting point

Tell me the measured melting point of CC(C)(C)c1ccc(-c2cn(Cc3coc4ccccc4c3=O)nn2)cc1 , please.
218 to 219 °C

Moving on to the next compound: Cc1cccc(-c2cn(Cc3coc4ccccc4c3=O)nn2)c1
124 to 125 °C

Also, COc1ccc(-c2cn(Cc3coc4ccccc4c3=O)nn2)c(C)c1 please.
172 to 173 °C

And what about the compound O=c1c(Cn2cc(-c3cccc4ccccc34)nn2)coc2ccccc12 ?
154 to 155 °C

Ok, now O=c1c(Cn2cc(-c3ccccn3)nn2)coc2ccccc12
175 to 176 °C

---

Kindly state melting point for each of the entries shown.

Quick one: melting point for O=c1c(Cn2cc(C3CCCCC3)nn2)coc2ccccc12 ?
145 to 146 °C

Here is the next molecule: COc1ccc(-c2cn(Cc3coc4ccccc4c3=O)nn2)cc1
170 to 171 °C

What do you get for O=c1c(Cn2cc(C3(O)c4ccccc4-c4ccccc43)nn2)coc2ccccc12 ?
239 to 240 °C

Try this molecule next: Cc1ccc(-c2cn(Cc3coc4ccccc4c3=O)nn2)cc1
170 to 172 °C

Same read-out for CCCCCCc1cn(Cc2coc3ccccc3c2=O)nn1 ?
84 to 85 °C

Similarly, CCCCCc1ccc(-c2cn(Cc3coc4ccccc4c3=O)nn2)cc1 ?
147 to 148 °C
